# assayed_target: rat TAAR1 (Rattus norvegicus (Rat), UniProt Q923Y9)
# Sequence (Q923Y9 whole entry): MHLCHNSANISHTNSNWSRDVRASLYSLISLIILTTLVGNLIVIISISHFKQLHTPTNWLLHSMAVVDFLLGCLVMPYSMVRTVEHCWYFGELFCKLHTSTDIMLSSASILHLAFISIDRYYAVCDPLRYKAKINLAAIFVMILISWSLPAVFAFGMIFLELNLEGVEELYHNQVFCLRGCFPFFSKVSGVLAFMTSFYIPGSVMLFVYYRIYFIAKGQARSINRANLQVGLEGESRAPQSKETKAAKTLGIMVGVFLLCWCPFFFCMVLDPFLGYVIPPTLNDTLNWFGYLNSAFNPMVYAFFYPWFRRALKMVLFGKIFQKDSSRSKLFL
# method: Radioligand binding assay on rat TAAR1
# condition_notes: rat TAAR1, HEK-293 membranes, second value of cell mouse/rat; read-out: Ki (μM) rat
Counter-ions that a name gives are not always drawn.
Form field: Ki (one value per entry).
endpoint_label: Ki (µM)

O=C(Nc1ccc(CCC2CCCN2)cc1)c1ccc(F)cc1 (racemic) [Example 156, hydrochloride] ... 0.002
CN1CCC(c2ccc(NC(=O)c3ccc(Cl)cc3)cc2)C1 (racemic) ... 0.0858
Cc1cccc(NC(=O)Nc2ccc(C3CNCCO3)cc2)c1 (racemic) [Example 304, hydrochloride] ... 0.0012
O=C(Nc1ccc([C@H]2CCCNC2)cc1)c1ccc(Cl)nc1 [Example 161, hydrochloride] ... 0.0101
O=C(NCc1ccc([C@@H]2CNCCO2)cc1)c1ccc(Cl)cc1 [Example 314, hydrochloride] ... 0.0062
O=C(Nc1ccc(CCC2CCCNC2)cc1)c1ncc(F)cc1F (racemic) [Example 135, hydrochloride] ... 0.0134
Cc1cc(C(=O)Nc2ccc([C@H]3CNCCO3)cc2)cc(Cl)n1 [Example 286, hydrochloride] ... 0.0044
N#Cc1cccc(CC(=O)Nc2ccc(C3CCNC3)cc2)c1 (racemic) ... 0.645
O=C(NCc1ccc([C@H]2CNCCO2)cc1)c1ccc(Cl)cc1 [Example 317, hydrochloride] ... 0.0226
CCC(C(=O)Nc1ccc(C2CCNC2)cc1)c1ccccc1 (racemic) ... 0.0606
CCOc1ccc(C(=O)Nc2ccc(C3CCCNC3)cc2)nc1 (racemic) [Example 179, hydrochloride] ... 0.0022
O=C(NCc1ccc([C@H]2CNCCO2)cc1)c1ccc(Cl)nc1 [Example 319, hydrochloride] ... 0.0206
O=C(Nc1ccc(C2CCCNC2)cc1)c1ncc(F)cc1F (racemic) [Example 106, hydrochloride] ... 1.43
Cc1ccc(C(=O)Nc2ccc(C3CCCNC3)cc2)cc1 (racemic) [Example 185, hydrochloride] ... 0.0026
O=C(Nc1ccc(C2CCNCC2)cc1)c1ccc(Cl)cc1 [Example 57, hydrochloride] ... 0.0005
O=C(Nc1cccc(C2CNCCO2)c1)c1ccc(Cl)cc1 (racemic) [Example 72, hydrochloride] ... 0.107

* * *

# assayed_target: mouse TAAR1 (Mus musculus (Mouse), UniProt Q923Y8)
# Sequence (Q923Y8 whole entry): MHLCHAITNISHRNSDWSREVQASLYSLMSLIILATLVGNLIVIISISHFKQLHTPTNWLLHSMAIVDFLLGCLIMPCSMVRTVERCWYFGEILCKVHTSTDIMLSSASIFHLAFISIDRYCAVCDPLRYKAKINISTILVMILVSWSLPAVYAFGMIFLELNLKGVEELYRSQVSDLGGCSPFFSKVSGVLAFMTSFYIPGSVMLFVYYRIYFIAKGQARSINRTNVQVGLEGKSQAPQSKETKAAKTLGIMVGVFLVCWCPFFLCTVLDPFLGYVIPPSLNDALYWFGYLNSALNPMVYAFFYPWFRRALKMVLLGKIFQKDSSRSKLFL
# method: Radioligand binding assay on mouse TAAR1
# condition_notes: read-out: Ki (μM) mouse
Structures can show the parent of a compound that is named as a salt.
endpoint_label: Ki (µM)

O=C(Nc1ccc([C@@H]2CCCNC2)cc1)c1ccc(Cl)nc1 [Example 162, hydrochloride] ... 0.231
O=C(Nc1ccc(C2CNCCO2)cc1)c1ccc(OCC(F)(F)F)nc1 (racemic) [Example 222, hydrochloride] ... 0.0037
O=C(Nc1ccc([C@@H]2CCCNC2)cc1)c1cccc(C(F)(F)F)c1 [Example 234, hydrochloride] ... 0.0217
O=C(Nc1ccc([C@@H]2CCCNC2)cc1)c1cnc(Cl)cn1 [Example 238, hydrochloride] ... 1.12
COc1ccc(C(=O)Nc2ccc([C@@H]3CCCNC3)cc2)cc1Cl [Example 203, hydrochloride] ... 0.0603
Cc1cccc(C(=O)Nc2ccc([C@@H]3CCCNC3)cc2)c1 [Example 253] ... 0.36
O=C(Nc1ccc(C2CNCCO2)cc1)c1cnc(-c2ccccc2)s1 (racemic) [Example 231, hydrochloride] ... 0.0043
C[C@@H]1CO[C@@H](c2ccc(NC(=O)c3cccc(Cl)c3)cc2)CN1 [Example 323, hydrochloride] ... 0.0592
O=C(Nc1ccc([C@@H]2CCCNC2)cc1)c1ccc(Cl)cn1 [Example 168, hydrochloride] ... 0.608
Cc1cccc(C(=O)Nc2ccc(C3CNCCO3)cc2)c1 (racemic) [Example 277, hydrochloride] ... 0.0472
O=C(Nc1ccc([C@H]2CNCCO2)cc1)c1cc(Cl)nc(Cl)c1 [Example 271, hydrochloride] ... 0.0067
O=C(Nc1ccc([C@@H]2CCCNC2)cc1)c1cnc(C(F)(F)F)cn1 [Example 248, hydrochloride] ... 0.188
COc1ccc(C(=O)Nc2ccc(C3CCNC3)cc2)nc1 (racemic) [Example 94, hydrochloride] ... 0.0601
O=C(NCc1ccc([C@@H]2CNCCO2)cc1)c1ccc(C(F)(F)F)nc1 [Example 321, hydrochloride] ... 1.31
CCCc1cnc(C(=O)Nc2ccc([C@@H]3CCCNC3)cc2)cn1 [Example 278, hydrochloride] ... 0.829
O=C(Nc1ccc([C@@H]2CNCCO2)cc1)c1cccc(Cl)c1 [Example 262, hydrochloride] ... 0.0052
O=C(Nc1ccc([C@@H]2CNCCO2)cc1)c1ccc(OCC(F)(F)F)nc1 [Example 268, hydrochloride] ... 0.002
Cc1ccc(C(=O)Nc2ccc([C@@H]3CCCNC3)cc2)cc1Cl [Example 225, hydrochloride] ... 0.0189
O=C(Nc1ccc([C@H]2CCCNC2)cc1)c1cccc(Cl)c1 [Example 151, hydrochloride] ... 0.011
O=C(Nc1ccc([C@H]2CNCCO2)cc1)c1ccc(Cl)cc1 [Example 144, hydrochloride] ... 0.0188

* * *

# assayed_target: rat TAAR1 (Rattus norvegicus (Rat))
# method: Radioligand binding assay on rat TAAR1
# condition_notes: rat TAAR1, HEK-293 membranes, second value of cell mouse/rat; read-out: Ki (μM) rat
Where a name gives a salt, the structure may show the parent alone.
Threshold check on Ki: strictly below 0.008 µM is 1; on or above 0.008 µM is -1.

CO[C@H]1CC[C@H](C(=O)Nc2ccc(C3CNCCO3)cc2)CC1 (mixture of isomers) [Example 255, hydrochloride] ... -1
O=C(Nc1ccc([C@H]2CCCNC2)cc1)c1ccc(Cl)cc1 [Example 113] ... 1
COc1ccc(C(=O)Nc2ccc(C3CCNC3)cc2)nc1 (racemic) [Example 94, hydrochloride] ... -1
Cc1cnc(C(=O)Nc2ccc([C@@H]3CCCNC3)cc2)cn1 [Example 247, hydrochloride] ... -1
O=C(Nc1ccc(C2CCNC2)cc1)c1ccc(Cl)cc1Cl (racemic) [Example 19, hydrochloride] ... -1
O=C(Nc1ccc(CCC2CCCN2)cc1)c1ccc(F)cn1 (racemic) [Example 166, hydrochloride] ... -1
Cc1cc(C(=O)Nc2ccc([C@@H]3CNCCO3)cc2)cc(Cl)n1 [Example 285, hydrochloride] ... 1

* * *

# assayed_target: mouse TAAR1 (Mus musculus (Mouse), UniProt Q923Y8)
# method: Radioligand binding assay on mouse TAAR1
# condition_notes: mouse TAAR1, HEK-293 membranes, first value of cell mouse/rat; read-out: Ki (μM) mouse
Structures can show the parent of a compound that is named as a salt.
Threshold check on Ki: strictly below 0.02 µM is rule met; on or above 0.02 µM is rule not met.

O=C(NCc1ccc([C@@H]2CNCCO2)cc1)c1cccc(Cl)c1 [Example 313, hydrochloride] ... rule not met
O=C(Nc1ccc(C2CCNC2)cc1)OC(c1ccc(Cl)cc1)C(F)(F)F (racemic) [Example 130] ... rule met
O=C(Nc1ccc(C2CCCNC2)cc1)c1ccc(Cl)cn1 (racemic) [Example 78, hydrochloride] ... rule met
O=C(Nc1ccc(C2CCCNC2)cc1)c1ccc(Cl)cc1Cl (racemic) [Example 99, hydrochloride] ... rule met
O=C(Nc1ccc(CCC2CCCN2)cc1)c1ccc(Cl)c(Cl)c1 (racemic) [Example 154, hydrochloride] ... rule met
O=C(Nc1ccccc1)Nc1ccc(C2CCNC2)cc1 (racemic) [Example 6, hydrochloride] ... rule met
O=C(Nc1ccc(C2CCNC2)cc1)Nc1ccc(Cl)c(Cl)c1 (racemic) [Example 3, hydrochloride] ... rule met
COc1ccc(C(=O)Nc2ccc(C3CCCNC3)cc2)cc1 (racemic) [Example 186, hydrochloride] ... rule not met
O=C(Nc1ccc(C2CCNC2)cc1)c1cccc(Cl)c1 (racemic) [Example 20, hydrochloride] ... rule met
O=C(Nc1ccc([C@@H]2CNCCO2)cc1)c1ccc(Cl)nc1 [Example 207, hydrochloride] ... rule not met
O=C(Nc1ccc([C@@H]2CCCNC2)cc1)c1cnc(Br)cn1 [Example 251, 2,2,2-trifluoroacetate] ... rule not met
O=C(Nc1ccc(C2CNCCO2)cc1)c1cccc(Cl)c1 (racemic) [Example 209, hydrochloride] ... rule met
O=C(Nc1ccc(C2CCNC2)cc1)c1ccc(Cl)cc1Cl (racemic) [Example 19, hydrochloride] ... rule met
O=C(Nc1ccc(C2CNCCO2)cc1)c1ccc(C(F)(F)F)nc1 (racemic) [Example 272, hydrochloride] ... rule not met
CCCc1ccc(C(=O)Nc2ccc(C3CCCNC3)cc2)cc1 (racemic) [Example 137, hydrochloride] ... rule met
O=C(Nc1ccc(C2CNCCO2)cc1)c1ccc(Cl)nc1 (racemic) [Example 193, hydrochloride] ... rule not met

* * *

# assayed_target: rat TAAR1 (Rattus norvegicus (Rat), UniProt Q923Y9)
# method: Radioligand binding assay on rat TAAR1
# condition_notes: rat TAAR1, HEK-293 membranes, second value of cell mouse/rat; read-out: Ki (μM) rat
Where a name gives a salt, the structure may show the parent alone.
Form field: log10 Ki (one value per entry).
endpoint_label: log10 Ki (log10 of the value in µM)

CO[C@H]1CC[C@@H](C(=O)Nc2ccc(C3CNCCO3)cc2)CC1 (mixture of isomers) [Example 254, hydrochloride] ... -0.14
O=C(Nc1ccc(C2CCNC2)cc1)OCc1ccc(F)cc1 (racemic) [Example 47, hydrochloride] ... -2.32
O=C(Nc1ccc(C2CCCNC2)cn1)c1ccc(Cl)cc1 (racemic) [Example 187, hydrochloride] ... -1.91
O=C(Nc1ccc(C2CCNC2)cc1)Nc1ccc(Cl)cc1Cl (racemic) [Example 7, hydrochloride] ... -2.44
O=C(Nc1ccc([C@@H]2CCCNC2)cc1)c1cnc(OCC(F)(F)F)cn1 [Example 250, hydrochloride] ... -2.25
CCOc1ccc(C(=O)Nc2ccc(C3CCCNC3)cc2)cc1 (racemic) [Example 97, hydrochloride] ... -1.71
CCOc1ccc(C(=O)Nc2ccc(CCC3CCCN3)cc2)nc1 (racemic) [Example 172, hydrochloride] ... -2.11
